Measured on: HER2 S310F (Homo sapiens, UniProt P04626, S310F)
Construct: expressed in transfected cells; host or cells: BaF3 (murine pro-B)
Sequence (P04626 23-1255 S310F): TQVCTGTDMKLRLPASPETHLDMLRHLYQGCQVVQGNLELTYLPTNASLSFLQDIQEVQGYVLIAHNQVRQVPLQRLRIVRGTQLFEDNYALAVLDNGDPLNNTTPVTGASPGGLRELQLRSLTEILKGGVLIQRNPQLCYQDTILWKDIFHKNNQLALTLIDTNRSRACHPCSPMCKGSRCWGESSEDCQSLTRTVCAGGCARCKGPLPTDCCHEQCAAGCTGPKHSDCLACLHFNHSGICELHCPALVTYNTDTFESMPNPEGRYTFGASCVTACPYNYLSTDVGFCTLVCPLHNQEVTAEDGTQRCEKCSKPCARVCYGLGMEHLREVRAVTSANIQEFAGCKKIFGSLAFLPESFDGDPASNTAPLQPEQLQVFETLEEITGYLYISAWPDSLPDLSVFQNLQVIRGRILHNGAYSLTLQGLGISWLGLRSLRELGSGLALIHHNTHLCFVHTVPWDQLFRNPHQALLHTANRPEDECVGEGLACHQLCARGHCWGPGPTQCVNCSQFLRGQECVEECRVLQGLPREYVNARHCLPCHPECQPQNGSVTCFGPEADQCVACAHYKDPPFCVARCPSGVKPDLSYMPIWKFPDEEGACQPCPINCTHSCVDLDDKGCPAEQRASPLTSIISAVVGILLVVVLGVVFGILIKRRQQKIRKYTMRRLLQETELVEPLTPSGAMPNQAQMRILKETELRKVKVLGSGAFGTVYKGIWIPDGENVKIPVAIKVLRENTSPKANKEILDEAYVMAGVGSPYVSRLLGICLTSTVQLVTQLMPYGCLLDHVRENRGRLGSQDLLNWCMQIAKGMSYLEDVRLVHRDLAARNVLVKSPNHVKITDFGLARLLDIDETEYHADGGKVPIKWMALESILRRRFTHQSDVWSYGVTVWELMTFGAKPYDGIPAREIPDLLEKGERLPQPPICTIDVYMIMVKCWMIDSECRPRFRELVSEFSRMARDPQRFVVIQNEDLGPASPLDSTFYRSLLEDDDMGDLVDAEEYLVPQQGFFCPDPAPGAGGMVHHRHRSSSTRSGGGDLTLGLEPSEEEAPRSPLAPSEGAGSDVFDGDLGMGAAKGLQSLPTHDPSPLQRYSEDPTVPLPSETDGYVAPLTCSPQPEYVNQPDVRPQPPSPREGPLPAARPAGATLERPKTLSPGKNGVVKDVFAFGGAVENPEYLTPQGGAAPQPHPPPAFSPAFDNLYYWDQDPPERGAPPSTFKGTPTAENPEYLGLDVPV
Method description: Activity for inhibiting HER2 (Table B), HER2 S310F
Assay type: cell-based
Applied conditions: read-out: HER2 S310F, potency code (IC50)
pIC50: −log10 of the molar value.
// pIC50 lookup, one value per entry

Field: example entries. Status: answers known.
{"Compound": "C=CC(=O)Nc1cc2c(Nc3ccc(OCc4ccccn4)c(Cl)c3)ncnc2cc1OCCN1CC2(COC2)C1 [compound 38]", "Measured on": "HER2 S310F (Homo sapiens, UniProt P04626, S310F)", "pIC50": "7.52 to 7.70"}
{"Compound": "C=CC(=O)Nc1cc2c(Nc3ccc(OCc4ccccn4)c(Cl)c3)ncnc2cc1N1CCC2(CCN(C)C2)C1 (stereo not drawn) [compound 46]", "Measured on": "HER2 S310F (Homo sapiens, UniProt P04626, S310F)", "pIC50": "6.70 to 7.00"}
{"Compound": "C=CC(=O)Nc1cc2c(Nc3ccc(OCc4ccccn4)c(Cl)c3)ncnc2cc1OCCN1CCC2C1CCN2C (stereo not drawn) [compound 92]", "Measured on": "HER2 S310F (Homo sapiens, UniProt P04626, S310F)", "pIC50": "7.52 to 7.70"}

// pIC50 (HER2 S310F (Homo sapiens, UniProt P04626, S310F)) for C=CC(=O)Nc1cc2c(Nc3cc(C)c(OCc4ccccn4)cc3F)ncnc2cc1OCCN1CCOCC1 [compound 100] = 7.00 to 7.30

// pIC50 (HER2 S310F (Homo sapiens, UniProt P04626, S310F)) for C=CC(=O)Nc1cc2c(Nc3ccc(Oc4ccc(Cl)cc4)cc3)ncnc2cc1OCCN1CCOCC1 [compound 74] = 6.52 to 6.70

// pIC50 (HER2 S310F (Homo sapiens, UniProt P04626, S310F)) for C=CC(=O)Nc1cc2c(Nc3ccc(OCc4ccccn4)c(Cl)c3)ncnc2cc1N(C)CCN1CCOCC1 [compound 7] = 6.52 to 6.70

This collection of values is drawn from patent US11034672B1.
